Species on record: Rattus norvegicus
Assay: Open TG-GATES - Regimen: Single
Type: toxicity, organism-based, Sprague-Dawley
Parameters: regimen Single, gender Male, age 6 weeks
Conditions: in vivo, po, 0 mg/kg, 24 h, tissue Plasma, route gavage, dose level Control
MEASURED_PROPERTY: PL (mg/dL)
Dear colleague, please return just the value in mg/dL, with no unit written.

Record CC1=C(CC(=O)O)c2cc(F)ccc2/C1=C\c1ccc([S+](C)[O-])cc1 (stereo unspecified) , field PL: 153

Record `CC[C@H]1[C@@H]2C[C@H]3[C@@H]4N(C)c5ccccc5[C@]45C[C@@H]([C@@H]2[C@H]5O)N3[C@@H]1O` , field PL: 146.8

Record `CCc1oc2ccccc2c1C(=O)c1cc(Br)c(O)c(Br)c1` , field PL: 149.4

Record `O=NN(CCCl)C(=O)NC1CCCCC1` , field PL: 146.6

Record ClC(Cl)(Cl)Cl [CARBON TETRACHLORIDE] , field PL: 156.2

---
Record OCCOCCN1CCN(C(c2ccccc2)c2ccc(Cl)cc2)CC1 (stereo unspecified) [HYDROXYZINE] , field PL: 147.8
